# Molt4 IC50 annotations
Target: T1, human CD98, endogenously expressed on Molt-4 human acute lymphoblastic leukemia cells (human)
T1 chain: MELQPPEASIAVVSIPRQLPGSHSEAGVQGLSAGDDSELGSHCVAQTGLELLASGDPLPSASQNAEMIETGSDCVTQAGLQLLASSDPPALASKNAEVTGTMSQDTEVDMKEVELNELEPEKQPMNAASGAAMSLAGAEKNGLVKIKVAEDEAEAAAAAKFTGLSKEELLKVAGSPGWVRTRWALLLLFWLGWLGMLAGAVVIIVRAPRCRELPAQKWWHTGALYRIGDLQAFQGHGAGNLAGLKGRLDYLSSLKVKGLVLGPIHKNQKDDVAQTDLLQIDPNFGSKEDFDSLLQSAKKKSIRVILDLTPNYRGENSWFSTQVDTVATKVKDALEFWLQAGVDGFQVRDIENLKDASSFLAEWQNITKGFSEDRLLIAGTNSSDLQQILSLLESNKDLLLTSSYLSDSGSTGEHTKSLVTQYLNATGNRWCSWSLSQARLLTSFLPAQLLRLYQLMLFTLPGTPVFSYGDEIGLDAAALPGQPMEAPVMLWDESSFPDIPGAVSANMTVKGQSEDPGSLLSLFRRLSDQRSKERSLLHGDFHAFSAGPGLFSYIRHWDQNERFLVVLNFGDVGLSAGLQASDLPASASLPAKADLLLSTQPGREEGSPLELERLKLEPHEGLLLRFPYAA
Test: cell-based or functional assay
Supply the numeric figure in nM, leaving out any unit text.

[
  {
    "binder": "CD98 (CL-huAb102)-AAA (antibody, human IgG1, kappa, L234A L235A, V domains shown, synthon AAA on reduced interchain cysteines (sites not given)) VH: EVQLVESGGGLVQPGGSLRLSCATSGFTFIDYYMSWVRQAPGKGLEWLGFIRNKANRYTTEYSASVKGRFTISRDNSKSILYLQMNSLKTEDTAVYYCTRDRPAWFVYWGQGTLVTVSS VL: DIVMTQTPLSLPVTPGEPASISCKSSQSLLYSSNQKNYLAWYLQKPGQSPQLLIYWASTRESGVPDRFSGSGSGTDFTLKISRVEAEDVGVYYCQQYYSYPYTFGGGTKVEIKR",
    "measurement_units": "nM",
    "Molt4 IC50": 0.05
  }
]

We next turn to a different binder, shown below.
Returns the measured Molt4 IC50 for the input binder. Input: CD98 (CL-huAb104)-AAD (antibody, human IgG1, kappa, L234A L235A, V domains shown, synthon AAD on reduced interchain cysteines (sites not given)) VH: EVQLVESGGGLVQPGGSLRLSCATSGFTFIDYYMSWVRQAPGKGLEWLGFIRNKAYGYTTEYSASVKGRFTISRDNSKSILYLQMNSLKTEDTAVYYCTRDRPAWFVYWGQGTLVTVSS VL: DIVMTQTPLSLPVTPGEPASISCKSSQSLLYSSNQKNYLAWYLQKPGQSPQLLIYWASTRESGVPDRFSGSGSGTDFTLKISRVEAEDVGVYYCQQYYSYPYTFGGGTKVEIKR
0.028
